Readings of self-cleavage for the listed variants
B1: Hairpin Ribozyme (parent)
chain: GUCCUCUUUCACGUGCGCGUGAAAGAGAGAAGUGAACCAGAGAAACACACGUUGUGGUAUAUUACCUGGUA

# Variants of: B1
# Protocol Summary: self-cleavage, relative activity (ratio to wild type); higher = more cleavage; co-transcriptional
Please reply with the number alone, leaving off any unit.

> print(dat)
    variant.name   value
 1     A24U G42U   0.342
 2     G13U C18A   0.915
 3     A26C A43U   0.224
 4     U14A C48U   0.123
 5      U2C A26C  0.0664
 6     G15U G40C  0.0954
 7     U33C G54C   0.163
 8      U2G U70A   0.191
 9     C12A A49U   0.256
10     G17U U70C   0.859

Now, please, on to the next variant.
Q. Sample C10U G57A — what was its self-cleavage?
A. 0.249
